Test system: Escherichia coli
method: Bactericidal activity against Escherichia coli ATCC 35210 incubated for 24 hrs followed by serial sub-cultivation and measured after 24 hrs by microdilution method
Assay type: functional
Listed compounds paired with reported MBC99.5
Give just the number in ×10⁻² umol/ml; leave the unit off.

Below, each entry is followed by its recorded MBC99.5 result.
O=C(N/N=C/c1c(Cl)cccc1Cl)c1nsc2ccccc12 ... 23.2
O=C(NN1C(=O)CSC1c1c(F)cccc1F)c1nsc2ccccc12 (stereo unspecified) ... 20.4
O=C(N/N=C/c1c(F)cccc1Cl)c1nsc2ccccc12 ... 24
O=C(NN1C(=O)CSC1c1ccc(Cl)cc1)c1nsc2ccccc12 (stereo unspecified) ... 76.8
CC1(C)S[C@@H]2[C@H](NC(=O)[C@H](N)c3ccccc3)C(=O)N2[C@H]1C(=O)O ... 49.2

Now for a further compound.
Exam item: Param item = O=C(NN1C(=O)CSC1c1c(F)cccc1Cl)c1nsc2ccccc12 (stereo unspecified) ; retrieve measured MBC99.5.
Marked response: 36.8
